Source of measurements: patent US20250243180A1

Test system: Caspase-1 activity
ASSAY PROTOCOL: Caspase-1 activity in human monocyte-derived macrophages, LPS/MSU stimulation
Assay type: cell-based
EXPERIMENTAL SETUP: Homo sapiens, Macrophage; 24 h pre-treatment, LPS + MSU 6 h, eight donors
Hi there, I'd appreciate the recorded pIC50 for every entry that follows.
Answers are plain numbers, as −log10 of the molar value.

Cc1cnc(C(C)(C)C(=O)NCc2cc(Cl)c(C3CCC(=O)NC3=O)c(Cl)c2)nc1 (centres unmarked) [Compound 14] = 8.80

Would you kindly look at the next entry?
For Caspase-1 activity, give the measured pIC50 of the entry CCN1CCC(S(=O)(=O)NC(=O)Nc2c3c(cc4c2CCC4)CCC3)CC1 [selnoflast, reference compound]
6.07

----------
STUDY TARGET: NEK7 (Homo sapiens (Human), UniProt Q8TDX7+Q96SW2)
Sequence (Q8TDX7 whole entry, one chain of several): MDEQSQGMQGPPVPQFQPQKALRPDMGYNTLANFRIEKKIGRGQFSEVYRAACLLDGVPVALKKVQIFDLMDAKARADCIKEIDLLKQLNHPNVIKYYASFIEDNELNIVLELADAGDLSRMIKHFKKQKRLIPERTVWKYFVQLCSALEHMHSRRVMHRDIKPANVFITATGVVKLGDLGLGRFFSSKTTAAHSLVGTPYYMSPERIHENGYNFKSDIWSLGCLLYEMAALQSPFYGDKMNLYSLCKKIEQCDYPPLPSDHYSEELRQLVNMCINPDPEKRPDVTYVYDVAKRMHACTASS
ASSAY PROTOCOL: NEK7 NanoBiT degradation assay in Cal51 NEK7 NanoBiT cell line
Type: cell-based
EXPERIMENTAL SETUP: Cal51 NEK7 NanoBiT cells, 24 hours; read-out: NEK7 NanoBiT DC50
TEST READOUT: DC50 (nM)
Give bare numbers, in nM.

Study these solved cases before continuing.
CC(C)(C(=O)NCc1cc(Cl)c(C2CCC(=O)NC2=O)c(Cl)c1)c1ncc(C#N)cn1 (stereo not shown) = 4
CC(C)(C(=O)NCc1ccc(C2CCC(=O)NC2=O)c(Cl)c1)c1cccc(C#N)c1 (stereo not shown) = 206
CC(C)(C(=O)NCc1ccc(C2CCC(=O)NC2=O)c(Cl)c1)c1ccc(F)cc1 (stereo not shown) = 12

Would you kindly look at the next entry?
Tell us which DC50 value is on record for CC(C)(C(=O)NCc1cc(Cl)c(C2CCC(=O)NC2=O)c(Cl)c1)c1ccc2nccnc2c1 (stereo not shown)
0.1

----------
STUDY TARGET: NEK7 (Homo sapiens (Human), UniProt Q8TDX7+Q96SW2)
ASSAY PROTOCOL: NEK7 NanoBiT degradation assay in Cal51 NEK7 NanoBiT cell line
Type: cell-based
EXPERIMENTAL SETUP: CAL-51; Cal51 NEK7 NanoBiT cells, 24 hours; read-out: NEK7 NanoBiT Dmax
Mark Criterion not met for Dmax values under 90%, and Criterion met for everything at or above.

Recorded results for 5 compounds are shown here.
CC(C)(C(=O)NCc1cc(Cl)c(C2CCC(=O)NC2=O)c(Cl)c1)c1c(F)cncc1F (centres unmarked) [Compound 68] = Criterion met
CC(C)(C(=O)NCc1cc(Cl)c(C2CCC(=O)NC2=O)c(Cl)c1)c1cncs1 (centres unmarked) [Compound 114] = Criterion not met
CC(C)(C(=O)NCc1ccc(C2CCC(=O)NC2=O)c(Cl)c1)c1cccc(C(F)(F)F)n1 (centres unmarked) [Compound 104] = Criterion not met
CCOc1cnc(C(C)(C)C(=O)NCc2cc(Cl)c(C3CCC(=O)NC3=O)c(Cl)c2)cn1 (centres unmarked) [Compound 234] = Criterion met
CC(C)(C(=O)NCc1cc(Cl)c(C2CCC(=O)NC2=O)c(Cl)c1)c1nccc(C2CC2)n1 (centres unmarked) [Compound 168] = Criterion not met

API: above_or_equal(metric=Dmax, cutoff=90%) for item CC(C)(C(=O)NCc1cc(Cl)c(C2CCC(=O)NC2=O)c(Cl)c1)c1cnc(CC(F)F)cn1 (centres unmarked) [Compound 240]
Criterion not met

----------
STUDY TARGET: NEK7 (Homo sapiens (Human), UniProt Q8TDX7+Q96SW2)
ASSAY PROTOCOL: NEK7 NanoBiT degradation assay in Cal51 NEK7 NanoBiT cell line
Format: cell-based
EXPERIMENTAL SETUP: CAL-51; NEK7 degradation, Cal51 NEK7 NanoBiT cells, 24 hours; read-out: NanoBiT Dmax
TEST READOUT: Dmax

Study these solved cases before continuing.
Cc1cnc(C(C)(C)C(=O)NCc2cc(Cl)c([C@@]3(F)CCC(=O)NC3=O)c(Cl)c2)nc1 (single isomer, unassigned) = ≤ 50%
Cc1cc(C(C)(C)C(=O)NCc2cc(Cl)c(C3CCC(=O)NC3=O)c(Cl)c2)no1 (stereo not shown) = > 75%
CC(F)(F)c1cnc(C(C)(C)C(=O)NCc2cc(F)c(C3CCC(=O)NC3=O)c(Cl)c2)cn1 (stereo not shown) = 50 to 75%
Cc1cc(CNC(=O)C(C)(C)c2ccncc2)cc(Cl)c1C1CCC(=O)NC1=O (stereo not shown) = > 75%
CC(C)(C(=O)NCc1cc(Cl)c(C2CCC(=O)NC2=O)c(Cl)c1)c1nnc(C(F)(F)F)o1 (stereo not shown) = 50 to 75%
CC(C)(C(=O)NCc1cc(Cl)c(C2CCC(=O)NC2=O)c(Cl)c1)c1ccc(S(C)(=O)=O)cc1 (stereo not shown) = > 75%

Tell us which Dmax value is on record for CC(C)(C(=O)NCc1cc(Cl)c(C2CCC(=O)NC2=O)c(Cl)c1)c1cccc(S(N)(=O)=O)c1 (stereo not shown)
> 75%

----------
STUDY TARGET: NEK7 (Homo sapiens (Human), UniProt Q8TDX7+Q96SW2)
ASSAY PROTOCOL: NEK7 NanoBiT degradation assay in Cal51 NEK7 NanoBiT cell line
Type: cell-based
EXPERIMENTAL SETUP: CAL-51; Cal51 NEK7 NanoBiT cells, 24 hours; read-out: NEK7 NanoBiT Dmax
Mark rule not met for Dmax values under 90%, and rule met for everything at or above.

COc1ccc(C(C)(C)C(=O)NCc2cc(Cl)c(C3CCC(=O)NC3=O)c(Cl)c2)nn1 (stereo not drawn) = rule met

API: above_or_equal(metric=Dmax, cutoff=90%) for item CC(C)(C(=O)NCc1cc(Cl)c(C2CCC(=O)NC2=O)c(Cl)c1)C1CCCO1 (stereo not drawn)
rule not met

----------
STUDY TARGET: NEK7 (Homo sapiens (Human), UniProt Q8TDX7+Q96SW2)
ASSAY PROTOCOL: NEK7 NanoBiT degradation assay in Cal51 NEK7 NanoBiT cell line
Type: cell-based
EXPERIMENTAL SETUP: Cal51 NEK7 NanoBiT cells, 24 hours; read-out: NEK7 NanoBiT DC50
Hi there, I'd appreciate the recorded log10 of DC50 for every entry that follows.
Short version: log10 scale, DC50, nM.

CC(C)(C(=O)NCc1cc(Cl)c(C2CCC(=O)NC2=O)c(Cl)c1)c1ccnc2ccccc12 (stereo not drawn) = 1.96

For every listed record, write down its log10 of DC50.
1. COCc1ccnc(C(C)(C)C(=O)NCc2cc(Cl)c(C3CCC(=O)NC3=O)c(Cl)c2)n1 (stereo not drawn)
2. COc1cnc(C(C)(C)C(=O)NCc2cc(F)c(C3CCC(=O)NC3=O)c(Cl)c2)cn1 (stereo not drawn)
3. Cc1cc(C(C)(C)C(=O)NCc2cc(Cl)c(C3CCC(=O)NC3=O)c(Cl)c2)ccn1 (stereo not drawn)

1: 2.51; 2: 0.60; 3: 0.78

For every listed record, write down its log10 of DC50.
1. CC(C)(C(=O)NCc1cc(Cl)c(C2CCC(=O)NC2=O)c(Cl)c1)c1ncco1 (stereo not drawn)
2. O=C1CCC(c2c(Cl)cc(CNC(=O)C3(c4ccc(F)cc4)CCOC3)cc2Cl)C(=O)N1 (stereo not drawn)
3. CN(C)S(=O)(=O)c1ccc(C(C)(C)C(=O)NCc2cc(Cl)c(C3CCC(=O)NC3=O)c(Cl)c2)cc1 (stereo not drawn)

1.89
0.78
0.78

For every listed record, write down its log10 of DC50.
1. CN(C)c1ccc(C(C)(C)C(=O)NCc2cc(Cl)c(C3CCC(=O)NC3=O)c(Cl)c2)cc1 (stereo not drawn)
2. CC(C)(C(=O)NCc1cc(F)c(C2CCC(=O)NC2=O)c(Cl)c1)c1cnc(OC(F)(F)F)cn1 (stereo not drawn)

1. 0.95
2. 2.00

For every listed record, write down its log10 of DC50.
1. CC(C)(C(=O)NCc1ccc(C2CCC(=O)NC2=O)c(Cl)c1)c1nc2ccccc2o1 (stereo not drawn)
2. Cc1nnc(C(C)(C)C(=O)NCc2cc(Cl)c([C@H]3CCC(=O)NC3=O)c(Cl)c2)o1 (single isomer, unassigned)
3. CC(C)(C(=O)NCc1cc(Cl)c(C2CCC(=O)NC2=O)c(Cl)c1)c1ccc(NS(C)(=O)=O)cc1 (stereo not drawn)
4. COc1cc(C(C)(C)C(=O)NCc2cc(Cl)c(C3CCC(=O)NC3=O)c(Cl)c2)ccn1 (stereo not drawn)

1. 1.43
2. 3.00
3. 1.26
4. 0.48

For every listed record, write down its log10 of DC50.
1. CC(C)(C(=O)NCc1cc(Cl)c(C2CCC(=O)NC2=O)c(Cl)c1)c1ccc(C#N)cc1 (stereo not drawn)
2. Cc1ccnc(C(C)(C)C(=O)NCc2cc(Cl)c(C3CCC(=O)NC3=O)c(Cl)c2)n1 (stereo not drawn)

-0.40
1.53

----------
STUDY TARGET: CRBN-DDB1 (Homo sapiens (Human))
Sequence (Q96SW2 whole entry): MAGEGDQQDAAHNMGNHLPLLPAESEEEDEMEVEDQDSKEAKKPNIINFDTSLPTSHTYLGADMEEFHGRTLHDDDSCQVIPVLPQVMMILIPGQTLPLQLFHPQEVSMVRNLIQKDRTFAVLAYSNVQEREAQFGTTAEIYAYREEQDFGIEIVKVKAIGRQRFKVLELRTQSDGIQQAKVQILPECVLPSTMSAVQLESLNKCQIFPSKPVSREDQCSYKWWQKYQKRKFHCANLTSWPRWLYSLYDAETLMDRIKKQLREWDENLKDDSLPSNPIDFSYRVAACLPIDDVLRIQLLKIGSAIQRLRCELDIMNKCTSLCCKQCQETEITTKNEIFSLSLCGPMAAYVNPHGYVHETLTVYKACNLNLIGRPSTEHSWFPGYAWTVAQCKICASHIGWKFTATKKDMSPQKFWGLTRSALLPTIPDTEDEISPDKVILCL
Sequence (Q16531 whole entry partner): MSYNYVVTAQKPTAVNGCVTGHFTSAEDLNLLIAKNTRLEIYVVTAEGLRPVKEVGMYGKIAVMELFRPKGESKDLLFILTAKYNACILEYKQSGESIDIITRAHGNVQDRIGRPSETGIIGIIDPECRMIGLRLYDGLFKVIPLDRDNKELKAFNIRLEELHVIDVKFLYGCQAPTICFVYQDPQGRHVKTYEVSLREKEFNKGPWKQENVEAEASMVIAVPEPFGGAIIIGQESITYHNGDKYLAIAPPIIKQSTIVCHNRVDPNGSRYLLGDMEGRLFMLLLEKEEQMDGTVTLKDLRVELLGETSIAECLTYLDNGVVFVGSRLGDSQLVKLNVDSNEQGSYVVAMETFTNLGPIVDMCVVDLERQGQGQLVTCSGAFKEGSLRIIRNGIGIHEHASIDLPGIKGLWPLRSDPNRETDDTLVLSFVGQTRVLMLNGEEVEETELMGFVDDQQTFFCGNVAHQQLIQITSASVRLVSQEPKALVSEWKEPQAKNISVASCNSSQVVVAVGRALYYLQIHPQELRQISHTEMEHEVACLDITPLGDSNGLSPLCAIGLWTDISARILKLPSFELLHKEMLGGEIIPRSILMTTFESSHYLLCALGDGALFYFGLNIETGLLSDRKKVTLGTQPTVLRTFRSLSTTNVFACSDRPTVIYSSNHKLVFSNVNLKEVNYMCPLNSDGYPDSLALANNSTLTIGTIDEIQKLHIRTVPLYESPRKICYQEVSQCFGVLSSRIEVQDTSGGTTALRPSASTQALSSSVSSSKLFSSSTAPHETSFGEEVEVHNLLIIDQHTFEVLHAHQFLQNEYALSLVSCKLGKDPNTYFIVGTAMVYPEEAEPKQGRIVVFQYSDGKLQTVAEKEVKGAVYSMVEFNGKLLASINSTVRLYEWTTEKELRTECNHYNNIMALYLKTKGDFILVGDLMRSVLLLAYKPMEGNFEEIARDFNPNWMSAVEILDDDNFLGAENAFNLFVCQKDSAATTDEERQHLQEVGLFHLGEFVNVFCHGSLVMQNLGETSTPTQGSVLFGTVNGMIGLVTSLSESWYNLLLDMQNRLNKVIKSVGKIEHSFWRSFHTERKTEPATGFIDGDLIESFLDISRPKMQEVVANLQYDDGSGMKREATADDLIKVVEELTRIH
ASSAY PROTOCOL: Compound binding to CRBN by HTRF assay
EXPERIMENTAL SETUP: HTRF class; Cereblon binding
TEST READOUT: EC50

Study these solved cases before continuing.
CC(C)(C(=O)NCc1cc(Cl)c(C2CCC(=O)NC2=O)c(Cl)c1)c1ccsc1 (centres unmarked) [Compound 126] = ≤ 100 nM
CC(C)(C(=O)NCc1cc(Cl)c(C2CCC(=O)NC2=O)c(Cl)c1)c1cc(C2CC2)on1 (centres unmarked) [Compound 185] = 100 to 1000 nM
CC(C)(C(=O)NCc1cc(Cl)c(C2CCC(=O)NC2=O)c(Cl)c1)c1cccc(F)c1 (centres unmarked) [Compound 27] = ≤ 100 nM

For every listed record, write down its EC50.
1. O=C1CCC(c2c(Cl)cc(CNC(=O)C3(c4ccc(F)cc4)CC(F)(F)C3)cc2Cl)C(=O)N1 (centres unmarked) [Compound 139]
2. CC(C)(C(=O)NCc1cc(F)c(C2CCC(=O)NC2=O)c(Cl)c1)c1ccc(OC(F)F)nc1 (centres unmarked) [Compound 267]
3. CC(C)(C(=O)NCc1cc(Cl)c(C2CCC(=O)NC2=O)c(Cl)c1)c1cc2ocnc2cn1 (centres unmarked) [Compound 146]
4. CC(C)(C(=O)NCc1cc(Cl)c(C2CCC(=O)NC2=O)c(Cl)c1)c1ccc(C2CC2)nn1 (centres unmarked) [Compound 192]
5. COc1nccc(C(C)(C)C(=O)NCc2cc(Cl)c(C3CCC(=O)NC3=O)c(Cl)c2)n1 (centres unmarked) [Compound 46]

≤ 100 nM
100 to 1000 nM
100 to 1000 nM
≤ 100 nM
≤ 100 nM
